Please go through the items and note down their viability at 24 h, 30 µM.
# experimentSummary: Cytotoxicity, CCK-8 assay
# Assay type: cell-based
# assayContext: human, A549 cells, concentration 30 µM (about 10.0 mg/L), read-out: cell viability

C=CCn1c(/C=C/c2ccccc2)nc2cc(C(F)(F)F)ccc21 [4b]; > 70%

Note: attention shifts to another entry.
Suppose we examine the molecule C=CCn1c(-c2ccc(Oc3ccccc3)cc2)nc2cc(C)ccc21 [12b] ; what viability at 24 h, 30 µM value has been reported?
> 70%

---

# targetEntity: NsdUTPase (Nocardia seriolae)
# Sequence (A0ABF7PKI9 entry or part of it): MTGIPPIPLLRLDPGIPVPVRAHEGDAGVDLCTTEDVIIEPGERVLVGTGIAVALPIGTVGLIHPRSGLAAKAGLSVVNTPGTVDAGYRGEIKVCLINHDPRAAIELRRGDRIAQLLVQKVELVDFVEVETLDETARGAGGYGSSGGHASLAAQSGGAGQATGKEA
# experimentSummary: NsdUTPase activity assay (PPi Light inorganic pyrophosphate assay kit)
# Assay type: biochemical
# assayContext: in vitro enzyme inhibitory activity; read-out: IC50 against NsdUTPase
assayReadout: pIC50
Give bare numbers, as −log10 of the molar value.

C=CCn1c(-c2ccc(Oc3ccccc3)cc2)nc2cc(C(=O)c3ccccc3)ccc21 [12c]; 4.81

Required: pIC50, one value per molecule below.
1. C=CCn1c(-c2cccc(Oc3ccccc3)c2)nc2ccccc21 [8d]
2. C=CCn1c(/C=C/c2ccc(N(C)C)cc2)nc2ccccc21 [4g]
3. C=CCn1c(-c2ccc(Oc3ccccc3)cc2)nc2ccccc21 [8a]
4. C=CCn1c(-c2ccc(Oc3ccccc3)cc2)nc2cc(C(F)(F)F)ccc21 [12a]
5. C=CCn1c(-c2ccc3ccccc3c2)nc2ccccc21 [8e]

1: 4.80; 2: 5.53; 3: 5.58; 4: 5.08; 5: 4.98
